// provenance: patent US20180037632A1

TARGET_DESC: T1, recombinant soluble human Seprase (rhuSeprase) (human, UniProt Q12884 29-760)
T1 construct: range 29-760; Secreted from CHO-S cells with a mouse Ig kappa secretion signal (not part of the protein in the assay); also called recombinant human Seprase; soluble fraction of human Seprase
T1 sequence: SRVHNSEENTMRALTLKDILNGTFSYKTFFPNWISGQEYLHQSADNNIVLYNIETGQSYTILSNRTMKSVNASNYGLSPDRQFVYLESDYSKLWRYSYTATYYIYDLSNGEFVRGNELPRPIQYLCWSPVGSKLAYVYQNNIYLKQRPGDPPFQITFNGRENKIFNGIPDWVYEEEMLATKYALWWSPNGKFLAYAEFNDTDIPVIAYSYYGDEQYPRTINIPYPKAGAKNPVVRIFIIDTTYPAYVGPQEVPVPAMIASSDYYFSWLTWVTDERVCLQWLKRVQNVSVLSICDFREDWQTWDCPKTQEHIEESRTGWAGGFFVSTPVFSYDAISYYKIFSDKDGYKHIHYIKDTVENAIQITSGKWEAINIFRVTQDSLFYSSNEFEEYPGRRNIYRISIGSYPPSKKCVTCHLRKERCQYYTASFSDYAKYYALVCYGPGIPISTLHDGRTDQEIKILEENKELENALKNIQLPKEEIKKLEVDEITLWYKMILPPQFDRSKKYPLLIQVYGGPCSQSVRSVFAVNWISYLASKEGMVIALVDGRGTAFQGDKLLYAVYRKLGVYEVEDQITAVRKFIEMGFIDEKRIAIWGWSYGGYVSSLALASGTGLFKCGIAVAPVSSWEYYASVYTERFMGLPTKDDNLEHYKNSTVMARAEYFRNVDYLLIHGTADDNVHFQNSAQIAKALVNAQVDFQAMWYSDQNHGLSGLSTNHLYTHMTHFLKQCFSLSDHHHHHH
EXPERIMENTAL_DETAILS: SPR (Biacore T100), rhuSeprase immobilised, MC-FA-010 at 37, 111,11, 333,33, 1000 and 3000 nM, global fit; Rmax 316,6 RU; Chi² 9,42 RU²; U-value 1
No end group written: not given here.
ASSAY_READOUT: Kd (nM)
Report the figure in nM without appending any unit label.

Kd measured on GKCPYSNWTPGRGPDCRRDSDCPGRCICRGNGYCG (designed binder, disulfide (positions not given here), also called soluble monovalent MC-FA-010; solitary MC-FA-010 miniprotein) [MC-FA-010] = 562
